Record form. Attribute: drug sensitivity score. Fill in for each entry.
Test system: IMC-1 (IL-2 20 ng/mL)
experiment: drug sensitivity score (DSS) (DSS units); higher = more sensitive; extreme values may be limits of the assay
condition.summary: 72 h
One number for each entry.

Lookup result for CNC(=O)c1cc(Oc2ccc(NC(=O)Nc3cc(C(C)(C)C)nn3-c3ccc4ncccc4c3)c(F)c2)ccn1 [Rebastinib] (max concentration tested 1000 nM) ; measured drug sensitivity score: 0

Lookup result for Cc1cc(C(C)Nc2ccccc2)c2nc(N3CCOCC3)cc(=O)n2c1 (stereo unspecified) [TGX-221] (max concentration tested 10000 nM) ; measured drug sensitivity score: 0

Lookup result for CNC(=O)c1cccc2cc(Oc3ccnc4cc(OCC5(N)CC5)c(OC)cc34)ccc12 [Lucitanib] (max concentration tested 10000 nM) ; measured drug sensitivity score: 0

Batch: drug sensitivity score for all items listed.
1. Cc1cnc(NC(=O)Nc2cc(Br)c(C)cc2OC[C@@H]2CNCCO2)cn1 [Rabusertib] (max concentration tested 1000 nM)
2. CCCOc1ccn2c(C(C)=O)cc(-c3ccccc3S(C)(=O)=O)c2c1 [GSK2801] (max concentration tested 10000 nM)
3. O=C(O)C(=O)O.[NH-][C@@H]1CCCC[C@H]1[NH-].[Pt+2] [Oxaliplatin] (max concentration tested 100000 nM)
4. CCn1c(-c2nonc2N)nc2cnc(Oc3cccc(NC(=O)c4ccc(OCCN5CCOCC5)cc4)c3)cc21 (max concentration tested 10000 nM)
5. Nc1ncnc2c1nc(Cl)n2[C@@H]1O[C@H](CO)[C@@H](O)[C@H]1O [8-chloro-adenosine] (max concentration tested 50000 nM)
6. COc1ncc(-c2ccc3nccc(-c4ccnnc4)c3c2)cc1NS(=O)(=O)c1ccc(F)cc1F [Omipalisib] (max concentration tested 1000 nM)

Reply text:
1. 0
2. 0
3. 11.6
4. 2.4
5. 2.97
6. 0.6

====

Test system: normal NK cells expanded with K562-aAPC
experiment: percent inhibition of viability; higher = more inhibition
condition.summary: 72 h; IL-2 2.5 ng/mL; 10 nM
Record form. Attribute: percent inhibition of viability. Fill in for each entry.
One number for each entry, in %.

Before answering, review these 8 worked examples.
# value of percent inhibition of viability, normal NK cells expanded with K562-aAPC, item C=CC[C@@H]1/C=C(\C)C[C@H](C)C[C@H](OC)[C@H]2O[C@@](O)(C(=O)C(=O)N3CCCC[C@H]3C(=O)O[C@H](/C(C)=C/[C@@H]3CC[C@@H](O)[C@H](OC)C3)[C@H](C)[C@@H](O)CC1=O)[C@H](C)C[C@@H]2OC [Tacrolimus] (max concentration tested 10000 nM) = -4.97

# value of percent inhibition of viability, normal NK cells expanded with K562-aAPC, item O=C(O)c1ccc(O)c2ncccc12 [IOX-1] (max concentration tested 100000 nM) = 2.28

# value of percent inhibition of viability, normal NK cells expanded with K562-aAPC, item Cc1[nH]c2ccccc2c1CCNCc1ccc(/C=C/C(=O)NO)cc1 [Panobinostat] (max concentration tested 1000 nM) = 33.4

# value of percent inhibition of viability, normal NK cells expanded with K562-aAPC, item COC(=O)c1ccc2c(c1)NC(=O)/C2=C(\Nc1ccc(N(C)C(=O)CN2CCN(C)CC2)cc1)c1ccccc1 [Nintedanib] (max concentration tested 10000 nM) = -2.82

# value of percent inhibition of viability, normal NK cells expanded with K562-aAPC, item COc1cc(Nc2ncc3c(n2)-c2ccc(Cl)cc2C(c2c(F)cccc2OC)=NC3)ccc1C(=O)O [Alisertib] (max concentration tested 10000 nM) = -10.5

# value of percent inhibition of viability, normal NK cells expanded with K562-aAPC, item CN(C)C(=O)c1cc2cnc(Nc3ccc(N4CCNCC4)cn3)nc2n1C1CCCC1 [Ribociclib] (max concentration tested 10000 nM) = -2.59

# value of percent inhibition of viability, normal NK cells expanded with K562-aAPC, item O=C1NC(=O)/C(=C/c2ccc3nccc(-c4ccncc4)c3c2)S1 (max concentration tested 10000 nM) = -6.22

# value of percent inhibition of viability, normal NK cells expanded with K562-aAPC, item C=CC(=O)Nc1cc2c(Nc3ccc(F)c(Cl)c3)ncnc2cc1OCCCN1CCOCC1 [Canertinib] (max concentration tested 10000 nM) = -1.95

Continuing:
# value of percent inhibition of viability, normal NK cells expanded with K562-aAPC, item CCS(=O)(=O)c1cccc(-c2cc(C(=O)NC3CCN(C)CC3)c(C)c3[nH]c4ncc(C)cc4c23)c1 [TAK-901] (max concentration tested 1000 nM) = -2.68
